Structures can show the parent of a compound that is named as a salt.
Recorded below: Ki, system UniProtKB P21453.
Sequence (P21453 whole entry, species assumed): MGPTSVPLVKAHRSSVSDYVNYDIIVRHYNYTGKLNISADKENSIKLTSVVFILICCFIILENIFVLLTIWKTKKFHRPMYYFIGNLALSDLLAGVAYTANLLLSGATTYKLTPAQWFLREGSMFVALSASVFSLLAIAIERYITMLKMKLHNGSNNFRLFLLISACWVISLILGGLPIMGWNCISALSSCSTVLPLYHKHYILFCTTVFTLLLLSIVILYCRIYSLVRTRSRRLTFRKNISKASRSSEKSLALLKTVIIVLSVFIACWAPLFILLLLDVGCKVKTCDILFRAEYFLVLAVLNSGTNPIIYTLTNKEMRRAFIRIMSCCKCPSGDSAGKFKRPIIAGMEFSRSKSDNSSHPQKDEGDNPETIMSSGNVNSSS
MEASURED METRIC: Ki (nM)

A. COCc1cc(-c2nc(-c3ccc(F)c(CN(C)CC(=O)O)c3)no2)ccc1-c1ccccc1C [Example 146, Hydrochloride salt]
B. COCc1cc(-c2nc(-c3ccc(C(=O)NCCC#N)c(F)c3)no2)ccc1-c1ccccc1C
C. COCc1cc(-c2nc(-c3ccc(C(=O)O)c(F)c3)no2)ccc1-c1ccccc1C
D. Cc1ccccc1-c1ccc(-c2nc(-c3ccc(C(=O)O)cc3F)no2)cc1C
E. COCc1cc(-c2nc(-c3ccc(C(N)=O)c(F)c3)no2)ccc1-c1ccccc1C
// smallest Ki at index 0, largest at the end Submit the labels in the order that the ranking request calls for.
A, B, E, C, D

P. COCc1cc(-c2nc(-c3cccc(C(=O)NCCNC(C)=O)c3)no2)ccc1-c1ccccc1C
Q. COCc1cc(-c2nc(-c3ccc(C(=O)NCC(=O)O)c(F)c3)no2)ccc1-c1ccccc1C
R. COCc1cc(-c2nc(-c3cccc(CN(C)CC(=O)O)c3)no2)ccc1OC(C)C [Example 148, Hydrochloride salt]
// ascending sort on recorded Ki Submit the labels in the order that the ranking request calls for.
R, P, Q

Cited source: patent US8202865B2
